Molecular target: T1, human G-CSF receptor (human, UniProt Q99062 25-836)
T1 sequence (looked up): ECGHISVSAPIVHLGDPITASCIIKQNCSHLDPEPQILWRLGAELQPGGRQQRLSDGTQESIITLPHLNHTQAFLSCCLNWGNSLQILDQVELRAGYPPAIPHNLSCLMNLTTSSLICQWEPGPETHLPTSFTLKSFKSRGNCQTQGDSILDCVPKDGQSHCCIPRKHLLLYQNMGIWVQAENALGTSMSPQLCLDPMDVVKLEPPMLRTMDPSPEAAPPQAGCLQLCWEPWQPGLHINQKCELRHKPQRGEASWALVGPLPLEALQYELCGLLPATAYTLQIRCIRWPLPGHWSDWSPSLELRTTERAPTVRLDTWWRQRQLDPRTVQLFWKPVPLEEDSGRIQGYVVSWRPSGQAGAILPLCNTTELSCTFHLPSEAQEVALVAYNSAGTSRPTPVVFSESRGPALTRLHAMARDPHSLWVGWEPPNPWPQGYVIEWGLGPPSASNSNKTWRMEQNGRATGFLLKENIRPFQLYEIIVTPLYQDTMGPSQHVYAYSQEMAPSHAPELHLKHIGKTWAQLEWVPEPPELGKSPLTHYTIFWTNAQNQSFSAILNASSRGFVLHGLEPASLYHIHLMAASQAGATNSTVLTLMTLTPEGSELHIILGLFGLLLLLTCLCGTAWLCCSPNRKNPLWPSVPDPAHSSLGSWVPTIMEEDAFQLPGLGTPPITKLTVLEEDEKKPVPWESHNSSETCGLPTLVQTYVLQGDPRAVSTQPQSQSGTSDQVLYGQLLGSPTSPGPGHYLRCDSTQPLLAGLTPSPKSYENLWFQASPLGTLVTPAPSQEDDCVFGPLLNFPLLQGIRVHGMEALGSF
Experiment: cell-based or functional assay
EC50 (% of hG-CSF) conjugated to SPA-PEG 5000 for assorted binders

• G-CSF variant K16/34/40R Q70K conjugated to SPA-PEG 5000 (ligand, SPA-PEG 5000 conjugated to the available PEGylation sites) TPLGPASSLPQSFLLRCLEQVRKIQGDGAALQERLCATYRLCHPEELVLLGHSLGIPWAPLSSCPSQALKLAGCLSQLHSGLFLYQGLLQALEGISPELGPTLDTLQLDVADFATTIWQQMEELGMAPALQPTQGAMPAFASAFQRRAGGVLVASHLQSFLEVSYRVLRHLAQP = 20 % of hG-CSF
• G-CSF variant K16/34/40R L3K conjugated to SPA-PEG 5000 (ligand, SPA-PEG 5000 conjugated to the available PEGylation sites) TPKGPASSLPQSFLLRCLEQVRKIQGDGAALQERLCATYRLCHPEELVLLGHSLGIPWAPLSSCPSQALQLAGCLSQLHSGLFLYQGLLQALEGISPELGPTLDTLQLDVADFATTIWQQMEELGMAPALQPTQGAMPAFASAFQRRAGGVLVASHLQSFLEVSYRVLRHLAQP = 25 % of hG-CSF
• G-CSF variant K16/34/40R conjugated to SPA-PEG 5000 (ligand, SPA-PEG 5000 conjugated to the available PEGylation sites) TPLGPASSLPQSFLLRCLEQVRKIQGDGAALQERLCATYRLCHPEELVLLGHSLGIPWAPLSSCPSQALQLAGCLSQLHSGLFLYQGLLQALEGISPELGPTLDTLQLDVADFATTIWQQMEELGMAPALQPTQGAMPAFASAFQRRAGGVLVASHLQSFLEVSYRVLRHLAQP = 30 % of hG-CSF
• G-CSF variant 23Q conjugated to SPA-PEG 5000 (ligand, SPA-PEG 5000 conjugated to the available PEGylation sites) TPLGPASSLPQSFLLKCLEQVRQIQGDGAALQEKLCATYKLCHPEELVLLGHSLGIPWAPLSSCPSQALQLAGCLSQLHSGLFLYQGLLQALEGISPELGPTLDTLQLDVADFATTIWQQMEELGMAPALQPTQGAMPAFASAFQRRAGGVLVASHLQSFLEVSYRVLRHLAQP = 0.1 % of hG-CSF
• G-CSF variant K16/34/40R S159K conjugated to SPA-PEG 5000 (ligand, SPA-PEG 5000 conjugated to the available PEGylation sites) TPLGPASSLPQSFLLRCLEQVRKIQGDGAALQERLCATYRLCHPEELVLLGHSLGIPWAPLSSCPSQALQLAGCLSQLHSGLFLYQGLLQALEGISPELGPTLDTLQLDVADFATTIWQQMEELGMAPALQPTQGAMPAFASAFQRRAGGVLVASHLQKFLEVSYRVLRHLAQP = 3 % of hG-CSF

Pending binder:
The recorded EC50 (% of hG-CSF) conjugated to SPA-PEG 5000 for G-CSF variant K16/34/40R Q90K conjugated to SPA-PEG 5000 (ligand, SPA-PEG 5000 conjugated to the available PEGylation sites) TPLGPASSLPQSFLLRCLEQVRKIQGDGAALQERLCATYRLCHPEELVLLGHSLGIPWAPLSSCPSQALQLAGCLSQLHSGLFLYQGLLKALEGISPELGPTLDTLQLDVADFATTIWQQMEELGMAPALQPTQGAMPAFASAFQRRAGGVLVASHLQSFLEVSYRVLRHLAQP is 20 % of hG-CSF
